Measured IC50 by item
Target chain: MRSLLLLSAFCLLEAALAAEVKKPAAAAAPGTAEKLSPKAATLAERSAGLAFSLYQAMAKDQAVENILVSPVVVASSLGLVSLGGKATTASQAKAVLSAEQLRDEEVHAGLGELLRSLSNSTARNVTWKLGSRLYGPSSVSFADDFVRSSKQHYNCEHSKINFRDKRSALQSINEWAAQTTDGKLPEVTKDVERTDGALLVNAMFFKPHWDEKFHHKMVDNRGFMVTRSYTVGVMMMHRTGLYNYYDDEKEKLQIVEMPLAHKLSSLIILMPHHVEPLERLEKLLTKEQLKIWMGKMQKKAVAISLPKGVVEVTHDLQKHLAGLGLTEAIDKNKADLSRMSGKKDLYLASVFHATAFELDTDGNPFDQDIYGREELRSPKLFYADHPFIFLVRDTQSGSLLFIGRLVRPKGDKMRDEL
metric-name: IC50 (µM)

* Cc1cc(C(=O)CSc2nc(O)c(C#N)c(-c3cccs3)n2)ccc1Cl | 6.3
* COC(=O)c1cc(Cl)cc2c1N[S+]([O-])S2 (stereo not drawn) | 3.1
* COc1ccc(C(C[N+](=O)[O-])Sc2ccc(N)cc2)cc1 (stereo not drawn) | 26.6
